Target: GST-MCL-1 (Homo sapiens (Human), UniProt Q07820)
Sequence (Q07820 whole entry): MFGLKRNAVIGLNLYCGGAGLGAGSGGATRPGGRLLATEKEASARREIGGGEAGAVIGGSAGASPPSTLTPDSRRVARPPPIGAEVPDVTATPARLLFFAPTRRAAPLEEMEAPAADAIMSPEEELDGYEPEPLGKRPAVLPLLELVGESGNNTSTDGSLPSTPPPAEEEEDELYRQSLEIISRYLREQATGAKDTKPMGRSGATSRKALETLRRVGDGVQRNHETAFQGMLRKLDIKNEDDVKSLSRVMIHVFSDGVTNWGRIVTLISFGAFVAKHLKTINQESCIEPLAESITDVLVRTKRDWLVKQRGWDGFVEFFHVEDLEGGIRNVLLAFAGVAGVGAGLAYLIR
Assay: TR-FRET MCL-1 binding assay (competition with probe F-Bak)
Settings: without HS, read-out: MCL-1 Binding Ki
Description: For the assay, an acoustic dispenser was used to prepare dilution series from 10 mM test compounds in 100% DMSO and directly transfer 160 nL into low volume 384-well assay plates. […] The samples were then mixed on a shaker for 1 minute and incubated for an additional 2 hours at room temperature. […] Fluorescence was measured on the Envision (Perkin Elmer) using a 340/35 nm excitation filter and 520/525 (F-Bak) and 495/510 nm (Tb-labeled anti-his antibody) emission filters. […]

>  <COMPOUND>
Cc1c(Cl)c2c(Cl)c(C)c1-c1c(-c3ccc(F)cc3)sc3ncnc(c13)O[C@@H](C(=O)O)Cc1cc(ccc1OCc1ccnc([C@H]3CC[C@@H](OCC4COCCO4)CC3)n1)OC[C@@H](CN1CCN(C)CC1)O2 (stereo partly shown) [Example 15]

>  <SUBJECT OF TEST>
GST-MCL-1 (Homo sapiens (Human), UniProt Q07820)

>  <Ki>
0.013 nM

$$$$
>  <COMPOUND>
Cc1c(Cl)c2c(Cl)c(C)c1-c1c(-c3ccc(F)cc3)sc3ncnc(c13)O[C@@H](C(=O)O)Cc1cc(ccc1OCc1ccnc(-c3ccc(OC[C@H]4COC(C)(C)O4)cc3)n1)OC[C@@H](CN1CCN(C)CC1)O2 [Example 1]

>  <SUBJECT OF TEST>
GST-MCL-1 (Homo sapiens (Human), UniProt Q07820)

>  <Ki>
0.042 nM

$$$$
>  <COMPOUND>
Cc1c(Cl)c2c(Cl)c(C)c1-c1c(-c3ccc(F)cc3)sc3ncnc(c13)O[C@@H](C(=O)O)Cc1cc(ccc1OCc1ccnc(-c3ccc(OC[C@H]4COCCO4)nc3)n1)OC[C@@H](CN1CCN(C)CC1)O2 [Example 5]

>  <SUBJECT OF TEST>
GST-MCL-1 (Homo sapiens (Human), UniProt Q07820)

>  <Ki>
0.048 nM

$$$$
>  <COMPOUND>
Cc1c(Cl)c2c(Cl)c(C)c1-c1c(C3=CCCC3)sc3ncnc(c13)O[C@@H](C(=O)O)Cc1cc(ccc1OCc1ccnc(C3=CC[C@](F)(COC[C@H]4COCCO4)CC3)n1)OC[C@@H](CN1CCN(C)CC1)O2 [Example 34]

>  <SUBJECT OF TEST>
GST-MCL-1 (Homo sapiens (Human), UniProt Q07820)

>  <Ki>
0.03 nM

$$$$
